Experiment: self-splicing fitness, log relative to wild type (ln ratio); higher = more splicing; Tetrahymena group I intron in knt gene, E. coli kanamycin selection, DiMSum; sequences stand for … in CUCUCU…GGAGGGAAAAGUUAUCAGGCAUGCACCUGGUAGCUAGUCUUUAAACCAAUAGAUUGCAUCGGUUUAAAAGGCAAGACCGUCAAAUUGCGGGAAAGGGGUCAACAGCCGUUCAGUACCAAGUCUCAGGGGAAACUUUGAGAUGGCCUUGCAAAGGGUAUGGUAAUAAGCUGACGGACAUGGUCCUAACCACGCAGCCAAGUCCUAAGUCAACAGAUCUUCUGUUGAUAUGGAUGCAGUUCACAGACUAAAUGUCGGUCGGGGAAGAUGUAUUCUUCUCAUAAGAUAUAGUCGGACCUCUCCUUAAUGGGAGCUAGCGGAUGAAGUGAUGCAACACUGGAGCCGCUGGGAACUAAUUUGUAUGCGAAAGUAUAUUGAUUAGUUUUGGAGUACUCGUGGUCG;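 further: selection with 25 µg/mL kanamycin versus none on LB agar overnight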
Details: 30 °C
We use -2 as the dividing line for self-splicing fitness (ln): on or above the line is y, below is n.

Given "CGUUAGCAAUAUUACGGUUU" , state whether its self-splicing fitness (ln) is at least -2.
n

Could you please find out whether "CUCAAGCAAUAUUACGUAGC" has self-splicing fitness (ln) that meets -2 or exceeds it?
n

Hello, I need to know if "CAGUAGCAAUAUUACGGACC" has measured self-splicing fitness (ln) not below -2. Thanks!
n

Identify whether the reported self-splicing fitness (ln) of the following sequence is -2 or greater: "GCUUAGCAAUAUUACGGAAA"
n

Does "CUAUAGCAAUAUUACGCCCG" have a reported self-splicing fitness (ln) of at least -2?
y

Does the reported self-splicing fitness (ln) for "ACAUAGCAAUAUUACGACAG" fall at or above the -2 mark?
y

Check if self-splicing fitness (ln) >= -2 (inclusive). Item: "CUCGAGCAAUAUUACGUACG"
n

// inclusive: self-splicing fitness (ln) at least -2? input: "CCCAAGCAAUAUUACGGUGG"
n

Test whether the sequence "GUAGAGCAAUAUUACGUUAG" records self-splicing fitness (ln) of -2 or higher.
n

# check: self-splicing fitness (ln) of "UUGGAGCAAUAUUACGCUAU" is greater than or equal to -2
n

Is the recorded value of self-splicing fitness (ln) equal to or greater than -2 for this sequence? "UGUGAGCAAUAUUACGCUUA"
n

Check the entry "UCUAAGCAAUAUUACGUCAU" : does self-splicing fitness (ln) equal or exceed -2?
n

====

Assay: self-splicing fitness, log relative to wild type (ln ratio); higher = more splicing; Tetrahymena group I intron in knt gene, E. coli kanamycin selection, DiMSum; sequences stand for … in CUCUCU…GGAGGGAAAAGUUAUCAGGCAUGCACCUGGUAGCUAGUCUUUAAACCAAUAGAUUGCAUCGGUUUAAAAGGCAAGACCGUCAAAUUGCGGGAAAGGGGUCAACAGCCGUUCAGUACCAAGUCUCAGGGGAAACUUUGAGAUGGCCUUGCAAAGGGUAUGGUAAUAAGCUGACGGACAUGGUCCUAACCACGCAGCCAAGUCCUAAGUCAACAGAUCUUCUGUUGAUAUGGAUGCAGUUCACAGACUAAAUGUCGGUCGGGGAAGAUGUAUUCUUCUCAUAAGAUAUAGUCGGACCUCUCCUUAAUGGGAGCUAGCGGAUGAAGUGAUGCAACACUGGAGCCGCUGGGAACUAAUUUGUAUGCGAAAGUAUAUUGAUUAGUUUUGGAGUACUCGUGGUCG
Conditions: 37 °C
What self-splicing fitness (ln) was measured for each of the following?

Any idea what its self-splicing fitness (ln) is? The sequence is "AGGUAGCAAUAUUACGAAUC"
-2.2

Please look up its self-splicing fitness (ln): "CUUGAGCAAUAUUACGUUUU"
-3.44

# query: self-splicing fitness (ln) of entry "GUAGAGCAAUAUUACGACCG"
-1.98

I am curious: what self-splicing fitness (ln) value has been reported for "UGAAAGCAAUAUUACGCCCG" ?
-0.0303

Could you share which self-splicing fitness (ln) value was measured for "UUUAAGCAAUAUUACGGCAA" ?
0.00377

Suppose we examine the sequence "GAGUAGCAAUAUUACGACUA" ; what self-splicing fitness (ln) value has been reported?
-0.537

Bench note: what self-splicing fitness (ln) did "GAACAGCAAUAUUACGCUGG" show?
-1.3

Item "UAUGAGCAAUAUUACGAUGA" has what recorded self-splicing fitness (ln)?
-1.68

Using the record for "CCCAAGCAAUAUUACGCAGA" , report its self-splicing fitness (ln).
-2.72

Look up self-splicing fitness (ln): "GGAGAGCAAUAUUACGAAGA"
-1.59

// returns reported self-splicing fitness (ln) for input "GAAGAGCAAUAUUACGUGAC"
-1.72

If you can, please state the reported self-splicing fitness (ln) value of "GGGUAGCAAUAUUACGCAUC" .
-2.48

Which self-splicing fitness (ln) is listed for "AGUGAGCAAUAUUACGUACG" ?
-1.3

Fill in the blank: the reported self-splicing fitness (ln) of "ACAAAGCAAUAUUACGCGAC" is ____.
-1.16

Give the measured self-splicing fitness (ln) of "ACGUAGCAAUAUUACGGUCU" .
-0.139

What does the record list as self-splicing fitness (ln) for "UGAGAGCAAUAUUACGAAGA" ?
-2.35

Report self-splicing fitness (ln) for "AAGAAGCAAUAUUACGACAU" please.
-0.0361

Which self-splicing fitness (ln) is listed for "AGUAAGCAAUAUUACGUGUC" ?
-2.24

// self-splicing fitness (ln) lookup, key: "AAUAAGCAAUAUUACGACAA"
-0.323

Which self-splicing fitness (ln) is listed for "CGACAGCAAUAUUACGAGCG" ?
-0.549

Name the recorded self-splicing fitness (ln) for "UAUCAGCAAUAUUACGAGAU" .
-2.21

Sample "AACAAGCAAUAUUACGCGGA" — what was its self-splicing fitness (ln)?
-0.961

Fill in the blank: the reported self-splicing fitness (ln) of "GAGAAGCAAUAUUACGGAGG" is ____.
-2.47

Any idea what self-splicing fitness (ln) was measured for "GGCCAGCAAUAUUACGUUCC" ?
0.125

Need self-splicing fitness (ln) of "AGCCAGCAAUAUUACGCGAG" , thanks.
-1.29

Entry under review: "GUAAAGCAAUAUUACGCAAC" . Reported self-splicing fitness (ln)?
-0.263

Fill in the blank: the reported self-splicing fitness (ln) of "CCCUAGCAAUAUUACGUUCC" is ____.
-2.11

Reported self-splicing fitness (ln) for "GUGGAGCAAUAUUACGGGAU" : what is it?
-1.99

Return reported self-splicing fitness (ln); argument: "AUCCAGCAAUAUUACGCUCG"
-0.356

Reported self-splicing fitness (ln), sequence "CAUUAGCAAUAUUACGUACG" : ____
0.593

So what does the record say about self-splicing fitness (ln) for "UUAUAGCAAUAUUACGAUGG" ?
-0.128

Give the measured self-splicing fitness (ln) of "ACAGAGCAAUAUUACGCAGU" .
-2.62

Recorded self-splicing fitness (ln) for "CCAUAGCAAUAUUACGUUCG" , please?
-0.674

Entry "UAACAGCAAUAUUACGCACU" : reported self-splicing fitness (ln) = ?
0.231

Which value of self-splicing fitness (ln) has been reported for "UCAUAGCAAUAUUACGUGCA" in the records?
0.377

Give its self-splicing fitness (ln) value. Item: "UCCUAGCAAUAUUACGUGAC"
-3.03

Name the recorded self-splicing fitness (ln) for "UGAGAGCAAUAUUACGAGUU" .
-2.3

Report self-splicing fitness (ln) for "GGGAAGCAAUAUUACGACGA" please.
0.0557

What value of measured self-splicing fitness (ln) is listed for "ACCAAGCAAUAUUACGUACA" ?
-1.05

Endpoint output: self-splicing fitness (ln) of "GGACAGCAAUAUUACGUGCU" . Value?
-0.685

For the sequence "AAGCAGCAAUAUUACGUGUA" , what self-splicing fitness (ln) is on record?
-0.134

Name the recorded self-splicing fitness (ln) for "AAAGAGCAAUAUUACGCCCA" .
-2.02

May I ask what self-splicing fitness (ln) has been recorded for "CCUAAGCAAUAUUACGGACU" ?
-2.29

What does the record list as self-splicing fitness (ln) for "AUCGAGCAAUAUUACGUUGA" ?
-2.94

Which value of self-splicing fitness (ln) has been reported for "UAACAGCAAUAUUACGCGAC" in the records?
-2.05

Need self-splicing fitness (ln), item "GUCCAGCAAUAUUACGCGAA"
0.483

Fill blank: measured self-splicing fitness (ln) of the sequence "AUACAGCAAUAUUACGGGAG" is ____.
-2.12

Which self-splicing fitness (ln) is reported for this sequence? "UUGCAGCAAUAUUACGACGG"
0.395

Please look up its self-splicing fitness (ln): "CCUGAGCAAUAUUACGAAUU"
-2.15

What value of self-splicing fitness (ln) has been recorded for this entry: "UUAGAGCAAUAUUACGAUGU"
-2.43

Could you tell me which self-splicing fitness (ln) is on file for "GUGCAGCAAUAUUACGGCGU" ?
-1.93

Entry under review: "UUGAAGCAAUAUUACGAGGU" . Reported self-splicing fitness (ln)?
-1.78

Bench note: what self-splicing fitness (ln) did "AUAUAGCAAUAUUACGACCA" show?
0.391

Would you mind telling me what self-splicing fitness (ln) value was observed for "ACGCAGCAAUAUUACGAUAA" ?
-1.95

Return reported self-splicing fitness (ln); argument: "GGCAAGCAAUAUUACGCCAU"
-1.39

Name the recorded self-splicing fitness (ln) for "UUUAAGCAAUAUUACGUCAA" .
-0.273

self-splicing fitness (ln) lookup needed for "GUCGAGCAAUAUUACGUCUG" , thanks.
-2.51

Endpoint output: self-splicing fitness (ln) of "AGGUAGCAAUAUUACGUAAC" . Value?
-1.18

Returns the measured self-splicing fitness (ln) for the input sequence. Input: "GGUCAGCAAUAUUACGUCUA"
0.0699

I am curious: what self-splicing fitness (ln) value has been reported for "UUGGAGCAAUAUUACGGGUG" ?
-1.44

Consider the sequence "AUCAAGCAAUAUUACGAGGA" and give its measured self-splicing fitness (ln).
-2.65
